- System: RPMI-8226 leukemia
- assay_details: NCI tumour cell line growth inhibition, 48 h
Recorded TGI for the following compounds

Here's what some known entries look like.
{"columns": ["compound", "TGI"],
 "data": [
  ["CCOC(=O)c1c(C(F)(F)F)n([O-])c2ccc(Cl)cc2[n+]1=O", "5.13 µM"],
  ["Cc1nn2c(=O)n(-c3cccc(-n4nnc5c(-c6ccccc6)c(C)nn5c4=O)c3C)nnc2c1-c1ccccc1", "96.4 µM"],
  ["CC(=O)OCC1OC(N2C(=O)CC(N)=Nc3ccccc32)C(OC(C)=O)C(OC(C)=O)C1OC(C)=O (stereo not given)", "49.8 µM"],
  ["Cc1cc(CN(Cc2ccccc2)Cc2nc3ccccc3[nH]2)c(O)c(CN(Cc2nc3ccccc3[nH]2)Cc2nc3ccccc3[nH]2)c1", "38.4 µM"],
  ["CC(=O)N1N=C(c2ccc3ccccc3c2O)CC1c1ccc(Cl)cc1Cl (stereo not given)", "> 100 µM"],
  ["CC(C)CC(NC=O)C(=O)NC(Cc1ccccc1)NC(=O)CNC(=O)C(C)NC(=O)OC(C)(C)C (stereo not given)", "> 100 µM"],
  ["Cc1ccc(NC(=O)CC(=O)n2nc(-c3ccccc3)c(N=Nc3ccccc3C(=O)O)c2-c2ccccc2)cc1", "> 100 µM"],
  ["COc1ccc(-c2nnc(Nc3nc(O)c(C4=c5cc(OC(F)(F)F)ccc5=NC4=O)s3)o2)cc1", "37.2 µM"]
]}

Asked: Which TGI is reported for this compound? CS(=O)/C(C#N)=C\C=C\c1cccc(Cl)c1 (stereo not given)
Given back: 12 µM
